test system: MEKK2 (MAP3K2) mutant PB1 domain binding to MEK5, human; assay: MEK5 binding signal on mutant MEKK2 PB1, primary screen, biochemical, multiplex bead flow cytometry, Alexa488-MEK5 (AID 1530); details: at 10 µM, active compounds read high
The campaign covered roughly 290,000 compounds. About 1,000 (0.34%) were called active. Only a selection was taken, and actives are over-represented in it overall.
QUANTITY MEASURED: percent response (%)
One number for each entry, in %.

{"columns": ["MOLECULE", "percent response, %"],
 "data": [
  ["Cc1ccc2nc(-c3ccc(NC(=O)CN(C)S(=O)(=O)c4ccccc4)cc3)sc2c1", -5],
  ["Cc1noc(C)c1C(=O)NCCc1ccc(S(N)(=O)=O)cc1", 2],
  ["COc1ccc(-c2ccc(CNCCCN3CCOCC3)o2)cc1Cl", 2],
  ["O=C(NC1CCCC1)C1CC(=O)N(c2ccc(F)cc2)C1 (stereo unspecified)", 0]
]}

# batch size: 6; output percent response per entry
1. CCOc1ccccc1NC(=O)Cn1ncc2ccc([N+](=O)[O-])cc21
2. COc1ccc(NC(=O)C2=CC(c3ccc(OC)c(OC)c3)=NS(=O)(=O)N2C)cc1
3. O=C(CC1NCCNC1=O)Nc1cc(Cl)cc(Cl)c1 (stereo unspecified)
4. CNC(C)C#Cc1ccc2sc3cc(OC)c(OC)cc3c(=O)c2c1 (stereo unspecified)
5. O=C(CC1SCCNC1=O)Nc1ccc(Cl)c(Cl)c1 (stereo unspecified)
6. CN1CCN(c2nc(Nc3ccc(O)cc3)nc3ccccc23)CC1

3
-4
2
13
174
2

// returns reported percent response for input O=C(CC1SCCNC1=O)Nc1ccc(Cl)cc1 (stereo unspecified) -10
